ASSAY TEXT: Maximum solubility in 2% BSA Krebs-Henseleit buffer (pH 7.4)
Assay type: physicochemical
CONDITION DESCRIPTION: 25 1° C.
// reported Maximum solubility for each item listed

Some compounds with recorded Maximum solubility:
# COMPOUND, Maximum solubility
records = [
    ("CCCCC(=O)Oc1ccc(-c2ccc(F)cc2F)cc1C(=O)O [Compound C5D, n-pentanoyldiflunisal]", "20.90 mM"),
    ("CCCC(=O)Oc1ccc(-c2ccc(F)cc2F)cc1C(=O)O [Compound C4D, n-butanoyldiflunisal]", "12.38 mM"),
    ("CCC(=O)Oc1ccc(-c2ccc(F)cc2F)cc1C(=O)O [Compound C3D, n-propionyldiflunisal]", "10.29 mM"),
]

Next compound, Maximum solubility to be filled in.
Ask: Specify reported Maximum solubility for the compound shown: CCCCCC(=O)Oc1ccc(-c2ccc(F)cc2F)cc1C(=O)O [Compound C6D, n-hexanoyldiflunisal]
Reply: 44.77 mM

* * *

Test system: human platelet rich plasma
ASSAY TEXT: Platelet aggregation induced by arachidonic acid
Format: cell-based
CONDITION DESCRIPTION: preincubation 5 minutes; compound 600 µM, 37° C.; arachidonic acid 200 µM
OBSERVED PROPERTY: Platelet Aggregation (% of control)

Some compounds with recorded Platelet Aggregation (% of control):
# ITEM SMILES, Platelet Aggregation (% of control)
rows = [
    ("CCCCC(=O)Oc1ccccc1C(=O)O", "41.3 ± 1.1 % of control"),
    ("CCCCCC(=O)Oc1ccc(-c2ccc(F)cc2F)cc1C(=O)O", "94.7 ± 0.3 % of control"),
    ("CCCCC(=O)Oc1ccc(-c2ccc(F)cc2F)cc1C(=O)O", "95.3 ± 0.7 % of control"),
]

Ask: Specify reported Platelet Aggregation (% of control) for the compound shown: `CCC(=O)Oc1ccc(-c2ccc(F)cc2F)cc1C(=O)O`
Reply: 89.3 ± 0.4 % of control

Ask: Specify reported Platelet Aggregation (% of control) for the compound shown: `CC(=O)Oc1ccc(-c2ccc(F)cc2F)cc1C(=O)O`
Reply: 67.3 ± 0.9 % of control

Ask: Specify reported Platelet Aggregation (% of control) for the compound shown: `CCCC(=O)Oc1ccccc1C(=O)O`
Reply: 0 % of control

Ask: Specify reported Platelet Aggregation (% of control) for the compound shown: `CCCCCC(=O)Oc1ccccc1C(=O)O`
Reply: 70.5 ± 3.1 % of control

Ask: Specify reported Platelet Aggregation (% of control) for the compound shown: `CCCCCCCC(=O)Oc1ccccc1C(=O)O`
Reply: 92.4 ± 0.1 % of control
